Hi there, I'd appreciate the recorded IC50 for every entry that follows.
# targetEntity: full-length SARM1 (FL-SARM1) (Homo sapiens)
# Sequence (Q6SZW1 28-724): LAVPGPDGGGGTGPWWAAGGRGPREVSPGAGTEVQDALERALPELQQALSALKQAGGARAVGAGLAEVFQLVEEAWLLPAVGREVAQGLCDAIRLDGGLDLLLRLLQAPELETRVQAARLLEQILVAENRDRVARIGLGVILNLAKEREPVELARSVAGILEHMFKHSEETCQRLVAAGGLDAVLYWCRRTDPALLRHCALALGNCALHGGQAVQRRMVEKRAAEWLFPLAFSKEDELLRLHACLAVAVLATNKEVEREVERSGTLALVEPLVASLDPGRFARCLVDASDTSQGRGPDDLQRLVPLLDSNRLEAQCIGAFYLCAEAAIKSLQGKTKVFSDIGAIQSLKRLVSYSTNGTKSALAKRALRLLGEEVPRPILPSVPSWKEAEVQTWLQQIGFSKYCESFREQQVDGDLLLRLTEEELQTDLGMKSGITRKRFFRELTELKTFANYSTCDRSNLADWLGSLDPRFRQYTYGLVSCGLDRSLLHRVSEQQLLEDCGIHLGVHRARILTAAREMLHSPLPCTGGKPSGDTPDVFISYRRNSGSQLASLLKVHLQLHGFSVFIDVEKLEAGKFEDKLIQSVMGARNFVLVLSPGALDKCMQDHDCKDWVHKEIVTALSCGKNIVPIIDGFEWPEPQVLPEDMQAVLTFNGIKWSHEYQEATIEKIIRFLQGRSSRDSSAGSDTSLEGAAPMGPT
# testMethodNotes: FL-SARM1 cellular lysate assay (NAD/NADH-Glo readout of remaining NAD+)
# particulars: Activity, SARM1 cellular lysate from transfected HEK293T cells, NAD+ and NMN, 11 point curve

compound | targetEntity | valueObserved
Cc1ccncc1-c1cc(NC(=O)N2C3CCCC2C3)ccc1C | full-length SARM1 (FL-SARM1) (Homo sapiens) | 0.1 to 1000 nM
Cc1ccc(NC(=O)C2C3CC2CN(CC(F)(F)F)C3)cc1-c1cncc(F)c1 (stereo not shown) | full-length SARM1 (FL-SARM1) (Homo sapiens) | 0.1 to 1000 nM
Cc1ccc(NC(=O)N2C3C[C@@H](C(F)F)C[C@@H]2C3)cc1-c1cncc(F)c1 | full-length SARM1 (FL-SARM1) (Homo sapiens) | 0.1 to 1000 nM
Cc1ccc(NC(=O)[C@H]2C[C@](C#N)(C3CC3)C2)cc1-c1cncc(F)c1 | full-length SARM1 (FL-SARM1) (Homo sapiens) | > 10000 nM
Cc1ccc(NC(=O)N2C3C[C@H]2C[C@@H](C(C)(C)O)C3)cc1-c1cncc(F)c1 | full-length SARM1 (FL-SARM1) (Homo sapiens) | 1000 to 10000 nM
Cc1ccc(NC(=O)N2[C@H](C)CCC[C@H]2C)cc1-c1cncc(F)c1 | full-length SARM1 (FL-SARM1) (Homo sapiens) | 1000 to 10000 nM
Cc1ccc(NC(=O)[C@@H]2CC2(F)F)cc1-c1cnc(C(F)(F)F)nc1 | full-length SARM1 (FL-SARM1) (Homo sapiens) | > 10000 nM
O=C(Nc1ccc(CCF)c(-c2cncc(F)c2)c1)N1C2CCCC1C2 | full-length SARM1 (FL-SARM1) (Homo sapiens) | 0.1 to 1000 nM

Parameter requested: IC50. Apply to each item below.
1. O=C(Nc1ccc(C2CC2)c(-c2cncc(F)c2)c1)N1C2CCCC1C2
2. Cc1ccc(NC(=O)N2C3CCCC2C3)cc1-c1cccnc1C#N

stdout:
1000 to 10000 nM
0.1 to 1000 nM

// for each compound in input: emit IC50
1. COC(=O)[C@H]1CCC2C[C@@H]1N2C(=O)Nc1ccc(C)c(-c2cncc(F)c2)c1
2. COC(=O)[C@H]1CC2C[C@@H](C1)N2C(=O)Nc1ccc(C)c(-c2cncc(F)c2)c1 (single isomer, unassigned)
3. Cc1ccc(NC(=O)N2C3C[C@H](OC(F)F)C[C@H]2C3)cc1-c1cncc(F)c1
4. Cc1ccc(NC(=O)N2C3CCCC2C3)cc1-c1cncc(OC(F)F)c1
5. Cc1ccc(NC(=O)N2C3CCCC2C3)cc1-c1cnc(C)c(F)c1
6. Cc1ccc(NC(=O)N2C3CCCC2C3)cc1-c1cncc(F)c1

stdout:
1: > 10000 nM; 2: 1000 to 10000 nM; 3: 0.1 to 1000 nM; 4: 0.1 to 1000 nM; 5: 0.1 to 1000 nM; 6: 0.1 to 1000 nM

Please give IC50 for each item listed below.
1. Cc1ccc(NC(=O)N2C3C[C@@H](C)C[C@@H]2C3)cc1-c1cncc(F)c1 (single isomer, unassigned)
2. Cc1ccc(NC(=O)[C@H]2C[C@@H](C3CC3(F)F)C2)cc1-c1cccnc1 (stereo partly shown)
3. Cc1ccc(NC(=O)N2C3CCCC2C3)cc1-c1cnnnc1

stdout:
1: 0.1 to 1000 nM; 2: 1000 to 10000 nM; 3: > 10000 nM

Your task in this section: give IC50 for each listed record.
1. Cc1ncc(-c2cc(NC(=O)N3C4CCCC3C4)ccc2C)cn1
2. Cc1ccc(NC(=O)N2C3C[C@@H](C#N)C[C@@H]2C3)cc1-c1cncc(F)c1
3. Cc1ccc(NC(=O)N2C3CCCC2C3)cc1-c1cncc(Cl)c1

stdout:
1: 1000 to 10000 nM; 2: 0.1 to 1000 nM; 3: 0.1 to 1000 nM

Origin of the recorded values: patent US20250361234A1
